Data origin, for the record: patent US20170355757A1

Target: Cynomolgus monkey C5 (cynomolgus monkey, UniProt A0A2K5U1T1 19-1676)
Experiment: cell-based or functional assay
Measured quantity: Cyno AP % Max Inhibition, hemolysis assay, 5% serum (%)
Your answer is read as %, so omit the unit and give the number.

Binder	Observed result
H4H11686N (antibody, human IgG4, V domains shown, tested with H4H prefix (human IgG4 Fc with S108P hinge mutation); also called H2M11686N) VH: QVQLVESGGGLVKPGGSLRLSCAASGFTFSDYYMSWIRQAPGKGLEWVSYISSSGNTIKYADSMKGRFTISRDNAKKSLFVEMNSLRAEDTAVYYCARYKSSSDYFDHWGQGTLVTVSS VL: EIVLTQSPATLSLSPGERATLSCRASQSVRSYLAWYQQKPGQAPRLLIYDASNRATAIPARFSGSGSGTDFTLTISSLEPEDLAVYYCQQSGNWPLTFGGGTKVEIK	98.7

// query Sample H4H12166P (antibody, V domains shown) VH: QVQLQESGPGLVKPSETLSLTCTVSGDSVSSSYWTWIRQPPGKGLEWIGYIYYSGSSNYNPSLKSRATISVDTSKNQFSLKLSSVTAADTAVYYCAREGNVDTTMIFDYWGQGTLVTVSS VL: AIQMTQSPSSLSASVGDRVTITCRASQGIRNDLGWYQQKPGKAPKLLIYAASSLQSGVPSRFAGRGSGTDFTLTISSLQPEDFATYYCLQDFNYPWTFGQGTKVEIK — what was its Cyno AP % Max Inhibition, hemolysis assay, 5% serum?
// result 98.6

// query Sample H4H12175P (antibody, human IgG4, V domains shown, H4H: human IgG4 Fc with S108P hinge mutation) VH: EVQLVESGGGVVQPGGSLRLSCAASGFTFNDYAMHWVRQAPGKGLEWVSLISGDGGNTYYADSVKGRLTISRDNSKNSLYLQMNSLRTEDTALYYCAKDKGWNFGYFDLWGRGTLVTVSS VL: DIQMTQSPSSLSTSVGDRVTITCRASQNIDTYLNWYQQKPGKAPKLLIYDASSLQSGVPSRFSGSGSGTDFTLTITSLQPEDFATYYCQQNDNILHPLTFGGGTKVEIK — what was its Cyno AP % Max Inhibition, hemolysis assay, 5% serum?
// result 98.1
